Test system: Plasmodium falciparum
methodSummary: Confirmatory screen in NF54 pLDH assay, in single point, at 2uM, 72h
Type: functional, Erythrocyte
condition: timepoint 72 hour
Screen size: about 4,800 compounds; about 410 (8.5%) showed an effect of 50% or more. The list comes from a sample in which strong results are over-represented; it also holds close analogues and randomly drawn compounds.
Exam item: assign t to entries whose % Inhibition is below 90% and f to entries at or above 90%. Note that a value of exactly 90% receives f.

IN: Report whether reported % Inhibition is lower than 90% (strictly) for Cc1cc(N2CCC(NC3CCCC3Cc3ccc(F)cc3)CC2)nc(N)n1 (stereo not given)
OUT: f

IN: Report whether reported % Inhibition is lower than 90% (strictly) for "Cc1cccc(Nc2ccnc(Nc3ccc(N4CCN(C)CC4)cc3)n2)c1"
OUT: f

IN: Report whether reported % Inhibition is lower than 90% (strictly) for "CCN1CCN(C[C@@H](C)CNCc2cc(-c3ccccc3)ccc2OC)CC1"
OUT: t

IN: Report whether reported % Inhibition is lower than 90% (strictly) for CC(CNc1nc(NCC(C)N2CCOCC2)c2cc(Cl)ccc2n1)N1CCOCC1 (stereo not given)
OUT: f

IN: Report whether reported % Inhibition is lower than 90% (strictly) for CN(C)CCN1CCC(NC2CCC(O)(c3cccc(Cl)c3)CC2)CC1 (stereo not given)
OUT: t

IN: Report whether reported % Inhibition is lower than 90% (strictly) for "O=C(NCCN1CCCCC1)c1cccc(-c2cnc3ccc(F)cn23)c1"
OUT: t

IN: Report whether reported % Inhibition is lower than 90% (strictly) for "Cc1cnccc1NCCNCc1cccc(OCCCCN2CCOCC2)c1"
OUT: f

IN: Report whether reported % Inhibition is lower than 90% (strictly) for "N#Cc1cccc(Cl)c1N1CCC(N2CCCC2)CC1"
OUT: t

IN: Report whether reported % Inhibition is lower than 90% (strictly) for "FC(F)(F)c1ccc(-c2c(-c3ccccc3)ncn2Cc2ncn[nH]2)cc1"
OUT: t

IN: Report whether reported % Inhibition is lower than 90% (strictly) for OCC1CCCN1CCCCNC1CC2(CCC2)Oc2ccccc21 (stereo not given)
OUT: t

IN: Report whether reported % Inhibition is lower than 90% (strictly) for "Cc1ccc2nccc(N3CCC(N4CCC(O)CC4)CC3)c2c1"
OUT: t

IN: Report whether reported % Inhibition is lower than 90% (strictly) for "Cc1ccccc1-c1cccc(N2CCC(NCC3CCNCC3)CC2)c1"
OUT: f

IN: Report whether reported % Inhibition is lower than 90% (strictly) for "CN1CCN(CC2CCN(c3ccnc4ccccc34)CC2)CC1"
OUT: f

IN: Report whether reported % Inhibition is lower than 90% (strictly) for "Cc1cc(N2CCC(N(C)Cc3cc(-c4ccccc4)n[nH]3)CC2)nc(N)n1"
OUT: t

IN: Report whether reported % Inhibition is lower than 90% (strictly) for "COc1cc2nc(NCC3(N4CCN(C)CC4)CCCC3)cc(C)c2cc1OC"
OUT: f

IN: Report whether reported % Inhibition is lower than 90% (strictly) for "c1ccc2c(c1)CN(c1ncnc3[nH]ccc13)CC1(CCOCC1)O2"
OUT: t

IN: Report whether reported % Inhibition is lower than 90% (strictly) for "CCc1oc2ccccc2c1CNC[C@H](O)c1ccc(Cl)cc1"
OUT: f

IN: Report whether reported % Inhibition is lower than 90% (strictly) for "CC(C)(C)n1ncc2c(NCc3ccc4cccnc4c3O)ncnc21"
OUT: t

IN: Report whether reported % Inhibition is lower than 90% (strictly) for c1ccc(-c2ccnc(C3CCN(CC45CNCC4C5)CC3)n2)cc1 (stereo not given)
OUT: f

IN: Report whether reported % Inhibition is lower than 90% (strictly) for "CN(c1ccccc1)c1ccc(CN2CCN([C@H]3CCNC3)CC2)cc1"
OUT: t

IN: Report whether reported % Inhibition is lower than 90% (strictly) for "Cc1ccc2nc(NC[C@H]3CCN(C4CC4)C3)cc(C)c2c1"
OUT: f

IN: Report whether reported % Inhibition is lower than 90% (strictly) for "Cc1ccc2nc(-c3cccc(NC(=O)c4ccc(OC(F)(F)F)c(Cl)c4)c3)[nH]c2n1"
OUT: t

IN: Report whether reported % Inhibition is lower than 90% (strictly) for "Cc1ocnc1CNC[C@H](O)c1ccc(Cl)c(Cl)c1"
OUT: f

IN: Report whether reported % Inhibition is lower than 90% (strictly) for "CCN1CCN([C@H]2CCN(c3ccnc4ccncc34)C2)CC1"
OUT: f

IN: Report whether reported % Inhibition is lower than 90% (strictly) for "O[C@H](COc1ccccc1CNCc1cc(-c2ccccc2)[nH]n1)CN1CCCCC1"
OUT: f

IN: Report whether reported % Inhibition is lower than 90% (strictly) for "Cn1cncc1[C@@H]1CNC[C@H]1CNC(=O)c1ccccc1NC1CCCCC1"
OUT: t

IN: Report whether reported % Inhibition is lower than 90% (strictly) for "Cn1nnc(C(=O)N2CCCCC23CCCCCC3)n1"
OUT: t

IN: Report whether reported % Inhibition is lower than 90% (strictly) for "c1ccc(-c2nc3c(c(NCCNc4ncccn4)n2)CCC3)nc1"
OUT: t

IN: Report whether reported % Inhibition is lower than 90% (strictly) for "O[C@H]1CCN(Cc2ccccc2CNc2cccc(-n3ccnc3)n2)C1"
OUT: f

IN: Report whether reported % Inhibition is lower than 90% (strictly) for "Cc1ccccc1-c1cccc(CNCCCN2CCC[C@H](O)C2)c1"
OUT: t

IN: Report whether reported % Inhibition is lower than 90% (strictly) for "COc1ccc2cc(NC(=O)c3cc(-c4c(C)nn(C)c4C)[nH]n3)cnc2c1"
OUT: t

IN: Report whether reported % Inhibition is lower than 90% (strictly) for O=C1C2CCCCC2C(c2c(-c3ccccc3)[nH]c3ccccc23)N1Cc1ccccc1 (stereo not given)
OUT: t

IN: Report whether reported % Inhibition is lower than 90% (strictly) for "COC(CN(Cc1nc(N)nc(Nc2ccc(C)cc2)n1)Cc1nc(N)nc(Nc2ccc(C)cc2)n1)OC"
OUT: f

IN: Report whether reported % Inhibition is lower than 90% (strictly) for "Clc1cccc(N2CC[C@H](CNC3CCN(Cc4ccco4)CC3)C2)c1"
OUT: f

IN: Report whether reported % Inhibition is lower than 90% (strictly) for CN1CCN(CCCCNC2CC3CCC(C2)N3Cc2ccccc2)CC1 (stereo not given)
OUT: t

IN: Report whether reported % Inhibition is lower than 90% (strictly) for "CCN1CCC[C@H](Nc2cccc(-n3ccnc3)n2)C1"
OUT: t

IN: Report whether reported % Inhibition is lower than 90% (strictly) for "CN(C)C1CCN(CCN[C@H]2CCc3ccc(F)cc32)CC1"
OUT: f

IN: Report whether reported % Inhibition is lower than 90% (strictly) for "CN(C)C1(CNc2nc(C(F)(F)F)nc3cc(F)ccc23)CCCCCC1"
OUT: t

IN: Report whether reported % Inhibition is lower than 90% (strictly) for "Nc1nc(NCC2CCN(CCc3ccccc3)CC2)cc([C@H]2C[C@@H](N)C2)n1"
OUT: t

IN: Report whether reported % Inhibition is lower than 90% (strictly) for Cc1cc(N2CCC(NC3CCNC(c4ccccc4)C3)CC2)nc(C)n1 (stereo not given)
OUT: t

IN: Report whether reported % Inhibition is lower than 90% (strictly) for "Cc1noc(-c2ccnc(NC[C@@H](c3ccccn3)N3CCOCC3)c2)n1"
OUT: f

Values were extracted from ChEMBL document CHEMBL5308541.
